- Tested target: human orexin-2 receptor (Homo sapiens (Human), UniProt O43614)
- Sequence (O43614 whole entry): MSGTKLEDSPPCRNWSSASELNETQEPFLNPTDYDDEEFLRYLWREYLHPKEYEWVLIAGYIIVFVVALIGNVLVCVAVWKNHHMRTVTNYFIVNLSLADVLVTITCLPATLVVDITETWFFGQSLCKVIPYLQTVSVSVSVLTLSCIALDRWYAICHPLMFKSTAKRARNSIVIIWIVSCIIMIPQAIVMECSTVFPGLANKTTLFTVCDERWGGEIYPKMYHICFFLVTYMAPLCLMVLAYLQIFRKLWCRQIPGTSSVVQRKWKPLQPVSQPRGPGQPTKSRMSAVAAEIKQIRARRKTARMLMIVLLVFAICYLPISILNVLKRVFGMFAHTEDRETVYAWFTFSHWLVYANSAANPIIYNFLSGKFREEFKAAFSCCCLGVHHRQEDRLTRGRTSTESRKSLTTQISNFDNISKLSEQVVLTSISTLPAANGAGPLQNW
- Run description: In vitro assay: intracellular calcium measurements (FLIPR), antagonistic activity
- Assay type: cell-based
- Condition set: CHO cells expressing human orexin-2 receptor, orexin-A agonist, geometric mean, read-out: IC50 Ox2
Let's look at some molecules and their measured IC50.
Record the value in nM, omitting the unit from your answer.

Answered examples (5):
- Smiles text: "Cc1ccc(-n2nccn2)c(C(=O)N2CCC[C@@]2(C)c2nc3c4c(ccc3[nH]2)OCCO4)c1"
  IC50, nM: 29
- Smiles text: "CO[C@@H]1C[C@@H](c2nc3ccc(Cl)c(C)c3[nH]2)N(C(=O)c2ccc(C)cc2-n2nccn2)C1"
  IC50, nM: 4
- Smiles text: "Cc1c(Cl)ccc2[nH]c([C@@H]3[C@@H](C)CCN3C(=O)c3cc(C(F)(F)F)ccc3-c3ccccc3)nc12"
  IC50, nM: 1430
- Smiles text: "COc1ccc2[nH]c([C@@H]3CCCN3C(=O)c3cc(C)ccc3-n3cccn3)nc2c1"
  IC50, nM: 36
- Smiles text: "C=C1C[C@@H](c2nc3cc(OC)ccc3[nH]2)N(C(=O)c2cc(F)ccc2-n2nccn2)C1"
  IC50, nM: 29

Sample Cc1c(Cl)ccc2[nH]c([C@]3(C)CCCN3C(=O)c3nc(-c4ccc(F)cc4)sc3-c3ccc(F)cc3)nc12 ; IC50 observed: 521

Sample Cc1ccc(-n2nccn2)c(C(=O)N2CCC[C@@]2(C)c2nc3cc(F)c(Cl)cc3[nH]2)c1 ; IC50 observed: 134
